Target: RET (V778I) (Homo sapiens, UniProt P07949, V778I)
Construct: purchased Reaction Biology Corporation (assay run at the CRO)
Test: Biochemical kinase assay (Reaction Biology, 33P ATP)
Settings: 10 μM ATP
Protocol: The biochemical kinase assay was performed at Reaction Biology Corporation (www.reactionbiology.com, Malvern, Pa.) following the procedures described in the reference (Anastassiadis T, et al Nat Biotechnol. 2011, 29, 1039). Specific kinase/substrate pairs along with required cofactors were prepared in reaction buffer; 20 mM Hepes pH 7.5, 10 mM MgCl2, 1 mM EGTA, 0.02% Brij35, 0.02 mg/ml BSA, 0.1 mM Na3VO4, 2 mM DTIT, 1% DMSO. […]
observable: IC50 (nM)
// note: answer is a bare numeric in nM

// returns reported IC50 for input C[C@H]1CNC(=O)c2cnn3cc4c(nc23)N(Cc2cc(F)cnc2O1)[C@@H]1CCC[C@@H]1O4 [Compound 5] 0.233

###

target: LYN (Homo sapiens, UniProt P07948); construct: purchased Reaction Biology Corporation (assay run at the CRO); assay: Biochemical kinase assay (Reaction Biology, 33P ATP); settings: 10 μM ATP
Sequence (P07948 whole entry): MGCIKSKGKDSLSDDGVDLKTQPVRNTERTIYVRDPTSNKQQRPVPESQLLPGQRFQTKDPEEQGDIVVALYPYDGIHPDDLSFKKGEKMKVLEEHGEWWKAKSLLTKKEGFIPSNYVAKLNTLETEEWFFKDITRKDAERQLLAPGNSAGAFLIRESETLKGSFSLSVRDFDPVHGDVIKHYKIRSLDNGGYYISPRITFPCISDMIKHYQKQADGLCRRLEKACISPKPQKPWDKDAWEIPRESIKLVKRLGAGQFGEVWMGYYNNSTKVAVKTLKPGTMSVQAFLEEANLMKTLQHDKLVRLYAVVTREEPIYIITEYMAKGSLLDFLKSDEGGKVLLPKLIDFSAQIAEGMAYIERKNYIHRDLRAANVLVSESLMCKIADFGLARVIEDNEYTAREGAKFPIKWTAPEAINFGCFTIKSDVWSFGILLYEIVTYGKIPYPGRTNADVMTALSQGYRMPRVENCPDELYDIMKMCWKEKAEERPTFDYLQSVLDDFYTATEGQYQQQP
observable: IC50 (nM)

| molecule | target.of.assay | IC50 (nM) |
| --- | --- | --- |
| C[C@H]1CNC(=O)c2cnn3cc4c(nc23)N(Cc2cc(F)cnc2O1)[C@@H]1CCC[C@@H]1O4 [Compound 5] | LYN (Homo sapiens, UniProt P07948) | 2.03 |
| C[C@H]1CNC(=O)c2cnn3cc4c(nc23)N(Cc2cc(F)ccc2O1)[C@@H]1CCC[C@@H]1O4 [Compound 1] | LYN (Homo sapiens, UniProt P07948) | 1.97 |

###

Target: RET-NCOA4 (PTC3) (Homo sapiens, UniProt P07949)
Construct: fusion transcripts composed of the 3′ end of RET kinase domain and the 5′ end of separate partner genes; NCOA4 N-terminal part (fusion partner); purchased Reaction Biology Corporation (assay run at the CRO)
Sequence (P07949 with tags, fused parts or gaps): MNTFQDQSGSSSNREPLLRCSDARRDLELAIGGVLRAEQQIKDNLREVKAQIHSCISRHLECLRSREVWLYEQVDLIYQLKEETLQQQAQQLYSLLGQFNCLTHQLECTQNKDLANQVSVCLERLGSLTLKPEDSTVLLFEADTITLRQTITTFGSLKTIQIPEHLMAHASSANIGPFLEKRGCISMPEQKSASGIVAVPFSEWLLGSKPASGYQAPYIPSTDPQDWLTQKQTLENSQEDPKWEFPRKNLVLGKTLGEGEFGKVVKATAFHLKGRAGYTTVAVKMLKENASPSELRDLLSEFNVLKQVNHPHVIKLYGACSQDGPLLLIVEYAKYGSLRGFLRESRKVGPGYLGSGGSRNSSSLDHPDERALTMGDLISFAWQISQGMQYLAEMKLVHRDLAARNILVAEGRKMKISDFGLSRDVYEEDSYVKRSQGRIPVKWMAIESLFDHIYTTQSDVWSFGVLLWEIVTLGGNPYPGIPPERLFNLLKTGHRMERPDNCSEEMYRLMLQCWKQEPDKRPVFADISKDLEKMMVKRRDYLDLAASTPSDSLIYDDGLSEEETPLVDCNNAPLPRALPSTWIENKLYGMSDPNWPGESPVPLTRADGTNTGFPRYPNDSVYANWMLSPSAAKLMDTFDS
Test: Biochemical kinase assay (Reaction Biology, 33P ATP)
Conditions: 10 μM ATP
observable: IC50 (nM)

(I) C[C@H]1CNC(=O)c2cnn3cc4c(nc23)N(Cc2cc(F)cnc2O1)[C@@H]1CCC[C@@H]1O4
(II) C[C@H]1CNC(=O)c2cnn3cc4c(nc23)N(Cc2cc(F)ccc2O1)[C@@H]1CCC[C@@H]1O4
Exercise: compare I and II ; which one has the greater IC50? Field: selected label. Fill in the label of the entry you choose. I

The measured values listed here are drawn from patent US10745416B2.
